# credit: patent US10544143B2

Can you tell me IC50 for the items I'm about to list?
# system tested: UniProt:Q9NR96
# assay text: TLR9 inhibition reporter assay (HEK-Blue SEAP)
# condition label: read-out: TLR9 IC50; HEK-Blue cells overexpressing human TLR9, SEAP reporter, ODN2006 5 nM
Lab note: write values as number then unit, every time.

In: // output IC50; input Cc1c(-c2[nH]c3ccc(C4CCC(NCCS(C)(=O)=O)CC4)nc3c2C(C)C)cn2ncnc2c1C (stereo not shown) [Example 452] ; system UniProt:Q9NR96
Out: 3.09 µM

In: // output IC50; input Cc1c(-c2[nH]c3ccc(C4CC(N(C)CCS(C)(=O)=O)C4)nc3c2C(C)C)cn2ncnc2c1C (stereo not shown) [Example 621] ; system UniProt:Q9NR96
Out: 14.7 µM

In: // output IC50; input CC(C)c1c(-c2cn(C)c3ncccc23)[nH]c2ccc(CCC3CN(C4COC4)C3)nc12 ; system UniProt:Q9NR96
Out: 14.6 µM

In: // output IC50; input COc1cc(-c2[nH]c3ccc(OC4CCN(C(C)C)CC4)nc3c2C(C)C)cn2ncnc12 ; system UniProt:Q9NR96
Out: 1.19 µM

###

# system tested: human TLR9 (Homo sapiens (Human), UniProt Q9NR96)
# Sequence (Q9NR96 26-1032): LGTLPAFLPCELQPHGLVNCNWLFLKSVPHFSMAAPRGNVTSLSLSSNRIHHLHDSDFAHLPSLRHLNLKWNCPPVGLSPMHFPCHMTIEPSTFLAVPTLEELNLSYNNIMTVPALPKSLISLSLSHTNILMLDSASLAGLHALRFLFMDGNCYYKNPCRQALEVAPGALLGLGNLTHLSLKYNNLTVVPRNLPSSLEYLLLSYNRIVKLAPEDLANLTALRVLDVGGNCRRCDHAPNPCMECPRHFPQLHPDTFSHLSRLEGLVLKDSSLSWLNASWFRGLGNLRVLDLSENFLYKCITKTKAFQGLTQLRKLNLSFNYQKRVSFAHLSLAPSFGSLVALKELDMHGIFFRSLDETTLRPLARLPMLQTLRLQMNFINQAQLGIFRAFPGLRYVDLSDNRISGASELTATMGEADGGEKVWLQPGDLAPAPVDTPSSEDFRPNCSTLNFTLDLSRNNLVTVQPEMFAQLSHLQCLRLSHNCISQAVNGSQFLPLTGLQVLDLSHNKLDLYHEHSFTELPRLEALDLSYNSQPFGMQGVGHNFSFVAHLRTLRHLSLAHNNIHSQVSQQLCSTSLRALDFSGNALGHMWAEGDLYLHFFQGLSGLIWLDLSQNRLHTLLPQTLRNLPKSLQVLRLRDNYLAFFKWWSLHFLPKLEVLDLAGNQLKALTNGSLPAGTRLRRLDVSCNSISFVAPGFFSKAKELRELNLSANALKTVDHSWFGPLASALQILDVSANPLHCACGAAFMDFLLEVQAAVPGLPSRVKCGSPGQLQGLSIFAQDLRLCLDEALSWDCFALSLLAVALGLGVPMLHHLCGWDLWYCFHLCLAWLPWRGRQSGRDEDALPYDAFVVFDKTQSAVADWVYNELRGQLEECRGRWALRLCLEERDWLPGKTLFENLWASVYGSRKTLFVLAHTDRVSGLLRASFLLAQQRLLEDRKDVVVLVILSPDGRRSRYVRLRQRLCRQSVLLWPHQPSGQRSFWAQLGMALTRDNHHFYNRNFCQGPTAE
# assay text: TLR9 inhibition reporter assay (HEK-Blue SEAP);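 note: SEAP driven by an IFN-β minimal promoter with NF-κB and AP-1 sites, read after 22 h, compounds dosed 0.05 nM–50 µM, inhibition scaled between agonist plus DMSO and reference-inhibitor wells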
# condition label: read-out: TLR9 IC50; HEK-Blue cells overexpressing human TLR9, SEAP reporter, ODN2006 5 nM
Label T when IC50 is strictly below 4 µM; otherwise label F.

In: State whether 4 µM exceeds IC50 recorded for Cc1cc(-c2[nH]c3cc(F)c(C4CCN(C5COC5)CC4)nc3c2C(C)C)cn2ncnc12 .
Out: F

In: State whether 4 µM exceeds IC50 recorded for CNC(=O)CN(C)C1CCC(c2ccc3[nH]c(-c4cn5ncnc5c(C)c4C)c(C(C)C)c3n2)CC1 (stereo not shown) [Example 420] .
Out: T

In: State whether 4 µM exceeds IC50 recorded for Cc1c(-c2[nH]c3ccc(N4C[C@H](C)N(CCC(N)=O)[C@@H](C)C4)nc3c2C(C)C)cn2ncnc2c1C .
Out: F

In: State whether 4 µM exceeds IC50 recorded for Cc1c(-c2[nH]c3ccc(C4CCC(N(C)CCS(C)(=O)=O)CC4)nc3c2C(C)C)cn2ncnc2c1C (stereo not shown) [Example 425] .
Out: T

In: State whether 4 µM exceeds IC50 recorded for CNC(=O)CN1CCC(c2ccc3[nH]c(-c4cn(C)c(=O)c(Cl)c4C)c(C(C)C)c3n2)CC1 .
Out: T

In: State whether 4 µM exceeds IC50 recorded for Cc1c(-c2[nH]c3ccc(C4CN(C)CCO4)nc3c2C(C)C)cn2ncnc2c1C (stereo not shown) .
Out: F

In: State whether 4 µM exceeds IC50 recorded for Cc1c(-c2[nH]c3ccc(C4CCC(NCCO)CC4)nc3c2C(C)C)cn2ncnc2c1C (stereo not shown) .
Out: T

###

# system tested: human TLR9 (Homo sapiens (Human))
# assay text: TLR9 inhibition reporter assay (HEK-Blue SEAP)
# condition label: read-out: TLR9 IC50; HEK-Blue cells overexpressing human TLR9, ODN2006 5 nM stimulation, SEAP reporter
Can you tell me IC50 for the items I'm about to list?
Numeric answer only, unit µM assumed.

In: // output IC50; input CNC1CCC(c2ccc3[nH]c(-c4cn(C)c5nccnc45)c(C(C)C)c3n2)CC1 (stereo not shown) [Example 297] ; system human TLR9 (Homo sapiens (Human))
Out: 0.885

In: // output IC50; input COc1cc(-c2[nH]c3ccc(N4CCN(C(C)C)CC4)nc3c2C(C)C)cn2ncnc12 ; system human TLR9 (Homo sapiens (Human))
Out: 3.99

In: // output IC50; input Cc1c(-c2[nH]c3ccc(C4CCC(N(C)C5COC5)CC4)nc3c2C(C)C)cn(C)c(=O)c1C (stereo not shown) [Example 249] ; system human TLR9 (Homo sapiens (Human))
Out: 5.98
